# System: PIP tumor and PC3 tumor
# Assay: Biodistribution of 125I labeled compounds 17, 18, 26 and 27 in tumor bearing nude mice
# Type: in vivo
# Condition: 1 h, organ with content
Reported Endpoint: Biodistribution: Bladder* (% ID/g)

O=C(O)CC[C@H](NC(=O)N[C@@H](CCCCNC(=O)[C@H](Cc1ccccc1)NC(=O)[C@H](CCC(=O)O)NC(=O)c1ccc([125I])cc1)C(=O)O)C(=O)O [[^125I]17]	204.72

A = O=C(O)CC[C@H](NC(=O)N[C@@H](CCCCNC(=O)[C@H](Cc1ccccc1)NC(=O)COc1ccc(C[C@H](NC(=O)[C@H](CCC(=O)O)NC(=O)c2ccc([125I])cc2)C(=O)O)cc1)C(=O)O)C(=O)O [[^125I]26]
B = O=C(O)CC[C@H](NC(=O)N[C@@H](CCCCNC(=O)[C@H](Cc1ccccc1)NC(=O)[C@H](CCC(=O)O)NC(=O)[C@H](CCC(=O)O)NC(=O)c1ccc([125I])cc1)C(=O)O)C(=O)O [[^125I]18]
Challenge: Between A and B , which one shows the smaller Biodistribution: Bladder* number? Mark your answer with the label of the selected entry.
Response given: A
(A: 14.69 % ID/g, B: 97.62 % ID/g)
